Where do the numbers come from? From patent US20080050759A1.

- System: S30 extracts from S. aureus 133
- procedure summary: Gram-positive in vitro coupled transcription/translation (T/T) assay, S. aureus S30 extract
- Format: biochemical
- reported conditions: template pXyl-FF; 50% inhibition of in vitro translation of luciferase; read-out: IC50
pIC50: −log10 of the molar value.
Entries and their pIC50 values follow.
measured parameter: pIC50

{"smiles entry": "CC1(C)S[C@@H]2[C@H](NC(=O)[C@H](N)c3ccccc3)C(=O)N2[C@H]1C(=O)O", "qualifying sign": "<", "readout number": 3.55}
{"smiles entry": "CC(=O)NC[C@H]1CN(c2ccc(N3CCOCC3)c(F)c2)C(=O)O1", "qualifying sign": "=", "readout number": 5.39}
{"smiles entry": "O=C(N[C@H](CO)[C@H](O)c1ccc([N+](=O)[O-])cc1)C(Cl)Cl", "qualifying sign": "=", "readout number": 5.03}
{"smiles entry": "CC[C@H]1OC(=O)[C@H](C)[C@@H](O[C@H]2C[C@@](C)(OC)[C@@H](O)[C@H](C)O2)[C@H](C)[C@@H](O[C@@H]2O[C@H](C)C[C@H](N(C)C)[C@H]2O)[C@](C)(O)C[C@@H](C)C(=O)[C@H](C)[C@@H](O)[C@]1(C)O", "qualifying sign": "=", "readout number": 6.70}
